# System: human myeloid leukaemia HL-60 cells
# Assay Protocol: Toxicity assay (resazurin, 72 h) on HL-60 cells
# Format: cell-based
# Condition Context: HL-60 cells; 72 h; determined microscopically; mean of three experiments
Endpoint Label: MIC (µM)
Form entry: value (µM) — number only.

>>> result("CCC(C(=O)OCc1ccccc1)C1CCC(C)C(C(C)C(O)C(C)C(=O)C(CC)C2OC3(C=CC(O)C4(CCC(C)(C5CCC(O)(CC)C(C)O5)O4)O3)C(C)CC2C)O1 (centres unmarked) [SAL-E5]")
100

Briefly, MIC measured for C=CCNC(=O)C(CC)C1CCC(C)C(C(C)C(O)C(C)C(=O)C(CC)C2OC3(C=CC(O)C4(CCC(C)(C5CCC(O)(CC)C(C)O5)O4)O3)C(C)CC2C)O1 (centres unmarked) [SAL-AM1] : 100

Looking up CCC1(C2OC(C3OC(O)(CO)C(C)CC3C)CC2C)CCC(C2(C)CCC3(CC(O)C(C)C(C(C)C(OC)C(C)C(=O)OCCO)O3)O2)O1 (centres unmarked) [MON-E2] , I found its MIC recorded as 100

MIC recorded for this compound, CCCCNC(=O)C(CC)C1CCC(C)C(C(C)C(O)C(C)C(=O)C(CC)C2OC3(C=CC(O)C4(CCC(C)(C5CCC(O)(CC)C(C)O5)O4)O3)C(C)CC2C)O1 (centres unmarked) [SAL-AM2, salinomycin n-butyl amide] , is 100

Measured MIC, CC[C@@]1([C@@H]2O[C@@H]([C@H]3O[C@@](O)(CO)[C@H](C)C[C@@H]3C)C[C@@H]2C)CC[C@H]([C@]2(C)CC[C@]3(C[C@H](O)[C@@H](C)[C@@H]([C@@H](C)[C@@H](OC)[C@H](C)C(=O)O)O3)O2)O1 [Monensin, monensin] : 10

In plain terms, CCC(C(=O)OC)C1CCC(C)C(C(C)C(O)C(C)C(=O)C(CC)C2OC3(C=CC(O)C4(CCC(C)(C5CCC(O)(CC)C(C)O5)O4)O3)C(C)CC2C)O1 (centres unmarked) [SAL-E1] has a documented MIC of 100

====

# MIC listing for each entry below
# Test system: human myeloid leukaemia HL-60 cells
# Assay Protocol: Toxicity assay (resazurin, 72 h) on HL-60 cells
# Format: cell-based
# Condition Context: HL-60 cells; 72 h; determined microscopically; mean of three experiments
# value in µM; strip the unit string

For orientation, consider the following solved cases.
>>> result("CCC(C(=O)NCCc1ccc(F)cc1)C1CCC(C)C(C(C)C(O)C(C)C(=O)C(CC)C2OC3(C=CC(O)C4(CCC(C)(C5CCC(O)(CC)C(C)O5)O4)O3)C(C)CC2C)O1 (centres unmarked)")
100
>>> result("CCC(C(=O)OCCO)C1CCC(C)C(C(C)C(O)C(C)C(=O)C(CC)C2OC3(C=CC(O)C4(CCC(C)(C5CCC(O)(CC)C(C)O5)O4)O3)C(C)CC2C)O1 (centres unmarked) [SAL-E2]")
100
>>> result("CC[C@@H](C(=O)[C@@H](C)[C@@H](O)[C@H](C)[C@@H]1O[C@@H]([C@@H](CC)C(=O)O)CC[C@@H]1C)[C@H]1O[C@]2(C=C[C@@H](O)[C@]3(CC[C@@](C)([C@H]4CC[C@](O)(CC)[C@H](C)O4)O3)O2)[C@H](C)C[C@@H]1C")
1

Form: compound = C=CCOC(=O)C(CC)C1CCC(C)C(C(C)C(O)C(C)C(=O)C(CC)C2OC3(C=CC(O)C4(CCC(C)(C5CCC(O)(CC)C(C)O5)O4)O3)C(C)CC2C)O1 (centres unmarked) ; MIC = 100
